Target: Cytochrome P450 1A2 (Homo sapiens) (UniProt P05177)
Sequence (P05177 whole entry, looked up): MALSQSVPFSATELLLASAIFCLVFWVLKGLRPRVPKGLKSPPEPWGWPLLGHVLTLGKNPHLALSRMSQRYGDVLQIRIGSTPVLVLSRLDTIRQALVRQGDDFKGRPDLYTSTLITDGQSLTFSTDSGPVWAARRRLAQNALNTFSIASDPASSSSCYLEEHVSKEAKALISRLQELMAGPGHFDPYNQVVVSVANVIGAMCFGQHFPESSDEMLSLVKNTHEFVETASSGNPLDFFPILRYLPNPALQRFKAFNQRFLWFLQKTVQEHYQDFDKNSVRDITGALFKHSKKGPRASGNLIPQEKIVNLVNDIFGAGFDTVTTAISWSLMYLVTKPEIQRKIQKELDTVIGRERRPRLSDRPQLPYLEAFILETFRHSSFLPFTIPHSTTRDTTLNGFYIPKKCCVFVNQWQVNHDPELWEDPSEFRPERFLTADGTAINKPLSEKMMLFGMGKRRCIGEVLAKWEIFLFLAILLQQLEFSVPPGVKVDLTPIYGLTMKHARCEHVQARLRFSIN
Test: p450-cyp1a2 (AID 410)
Conditions: recombinant CYP1A2, luciferin-ME demethylation, luminescence; series mostly up to 11.4 µM
Inconclusive results are not listed. Activity calls are given as the source filed them. Calls come from the whole dose curve.
Labels: active, inactive

structureNotation: Nc1ccc(CCNc2ncnc3c2ncn3[C@@H]2O[C@@H](CO)[C@H](O)[C@@H]2O)cc1
assignedClass: inactive

structureNotation: CCN(CC)[C@@H](C)C(=O)N1c2ccccc2Sc2ccccc21
assignedClass: inactive

structureNotation: O=C(O)CC(CC(=O)O)n1cccc1
assignedClass: inactive

structureNotation: N#CCCSC(=S)[C@H]1CCCC1=N
assignedClass: active

structureNotation: CC(C)(C)c1onc(OCP(=O)(O)O)c1C[C@@H](N)C(=O)O
assignedClass: inactive

structureNotation: N#[N+]c1ccc(Nc2ccccc2)cc1
assignedClass: inactive

structureNotation: CN1CCc2cc(Cl)c(O)cc2[C@H](c2ccccc2)C1
assignedClass: active

structureNotation: COc1ccc(/C=C(\C#N)C(N)=O)cc1OC
assignedClass: active

structureNotation: CC(C)CCC[C@@H](C)[C@@H]1CC[C@@H]2[C@H]3CC[C@H]4C[C@@H](N)CC[C@@]4(C)[C@@H]3CC[C@]21C
assignedClass: inactive

structureNotation: CC(C)C(=O)C(C)(C)CCc1ccccn1
assignedClass: active

structureNotation: N=C(N)S[C@H]1c2ccccc2-c2cc([N+](=O)[O-])ccc21
assignedClass: active

structureNotation: c1ccc(CCCNc2nnnc3ccccc23)cc1
assignedClass: active

structureNotation: NS(=O)(=O)c1ccc(N=Nc2nc3[nH]c(=O)[nH]c(=O)c3[nH]2)cc1
assignedClass: inactive

structureNotation: Cc1cc(SCC(=O)c2ccccc2)nc2ccccc12
assignedClass: active

structureNotation: C/C(=N/NS(=O)(=O)c1ccc(C)cc1)P(=O)(O)O
assignedClass: inactive

structureNotation: COc1ccc(C(=O)CCN(C)C)c2ccccc12
assignedClass: active

structureNotation: OC[C@@H]1O[C@@H](n2cnc3c(N[C@@H]4C[C@@H]5CC[C@H]4C5)ncnc32)[C@@H](O)[C@H]1O
assignedClass: inactive

structureNotation: Nc1c2c(nc3ccccc13)CCC[C@H]2O
assignedClass: active

structureNotation: Nc1nc(-c2ccccc2)c(-c2ccccc2)c(-c2nc(N)nc(-c3ccccc3)c2-c2ccccc2)n1
assignedClass: inactive

structureNotation: NC(N)=N/N=C(/c1ccccc1)c1ccc(O)cc1O
assignedClass: active

structureNotation: O=C1C=CC(=Nc2cccc3c(N=C4C=CC(=O)O4)cccc23)O1
assignedClass: inactive

structureNotation: S=C(S)NCCN1CCNCC1
assignedClass: inactive

structureNotation: COc1ccc2ccccc2c1/C=C\C(=O)c1ccccc1
assignedClass: active

structureNotation: Oc1ccc([C@@H]2CNCc3sccc32)cc1O
assignedClass: inactive

structureNotation: CCCCN1CSC(=S)N(Cc2ccccc2)C1
assignedClass: active

structureNotation: COC(=O)[C@@H]1[C@H]2C[C@H]3c4[nH]c5cc(OC)ccc5c4CCN3C[C@@H]2C[C@@H](OC(=O)c2cc(OC)c(OC)c(OC)c2)[C@@H]1OC
assignedClass: active

structureNotation: O=C(O)c1cc2c(cc1S(=O)(=O)O)[C@H]1[C@@H]([C@H]3[C@H]2[C@@]2(Cl)C(Cl)=C(Cl)[C@]3(Cl)C2(Cl)Cl)[C@]2(Cl)C(Cl)=C(Cl)[C@@]1(Cl)C2(Cl)Cl
assignedClass: inactive

structureNotation: Nc1[nH]c(=O)nc2c1ncn2[C@H]1O[C@@H](CO)[C@@H](O)[C@@H]1O
assignedClass: inactive

structureNotation: O=[N+]([O-])c1ccc(NN=C2c3ccccc3Cc3ccccc32)c([N+](=O)[O-])c1
assignedClass: active

structureNotation: O=C(O)c1ccc([N+](=O)[O-])c(P(=O)(O)O)c1
assignedClass: inactive

structureNotation: CC1=CC(C)(C)Nc2ccc(CSc3ccccc3)cc21
assignedClass: active

structureNotation: CC(C)(C)CC(C)(C)c1cc(O)c(O)c(CN2CCCCC2)c1
assignedClass: inactive

structureNotation: C/C(=N/S(=O)(=O)c1ccc(Cl)c(Cl)c1)OCC(C)(C)C
assignedClass: inactive

structureNotation: O=C(O)CCC(=O)c1ccc2sc3ccccc3c2c1
assignedClass: active

structureNotation: Cc1ccc(C)c(NC(=O)NCc2ccc(Cl)cc2)c1
assignedClass: active

structureNotation: Nc1nc2c(c(=O)[nH]1)N[C@H](CCNc1ccc(C(=O)O)cc1)CN2
assignedClass: inactive

structureNotation: CCOC(=O)c1c(C)c(C)n2c1NC(=O)C2
assignedClass: active
